Target: various mutants of kinase EGFR (BaF3 cell lines stably transfected with kinase) (Homo sapiens, UniProt P00533, T790M, form not given)
Construct: other: BaF3 cells stably transfected with EGFR Δ19Del/T790M; MTS, 48 h; other: BaF3 cell line stably transfected with EGFR Δ19Del/T790M; MTS, 48
Sequence (P00533 with tags, fused parts or gaps DEL746-750/T790M, form open): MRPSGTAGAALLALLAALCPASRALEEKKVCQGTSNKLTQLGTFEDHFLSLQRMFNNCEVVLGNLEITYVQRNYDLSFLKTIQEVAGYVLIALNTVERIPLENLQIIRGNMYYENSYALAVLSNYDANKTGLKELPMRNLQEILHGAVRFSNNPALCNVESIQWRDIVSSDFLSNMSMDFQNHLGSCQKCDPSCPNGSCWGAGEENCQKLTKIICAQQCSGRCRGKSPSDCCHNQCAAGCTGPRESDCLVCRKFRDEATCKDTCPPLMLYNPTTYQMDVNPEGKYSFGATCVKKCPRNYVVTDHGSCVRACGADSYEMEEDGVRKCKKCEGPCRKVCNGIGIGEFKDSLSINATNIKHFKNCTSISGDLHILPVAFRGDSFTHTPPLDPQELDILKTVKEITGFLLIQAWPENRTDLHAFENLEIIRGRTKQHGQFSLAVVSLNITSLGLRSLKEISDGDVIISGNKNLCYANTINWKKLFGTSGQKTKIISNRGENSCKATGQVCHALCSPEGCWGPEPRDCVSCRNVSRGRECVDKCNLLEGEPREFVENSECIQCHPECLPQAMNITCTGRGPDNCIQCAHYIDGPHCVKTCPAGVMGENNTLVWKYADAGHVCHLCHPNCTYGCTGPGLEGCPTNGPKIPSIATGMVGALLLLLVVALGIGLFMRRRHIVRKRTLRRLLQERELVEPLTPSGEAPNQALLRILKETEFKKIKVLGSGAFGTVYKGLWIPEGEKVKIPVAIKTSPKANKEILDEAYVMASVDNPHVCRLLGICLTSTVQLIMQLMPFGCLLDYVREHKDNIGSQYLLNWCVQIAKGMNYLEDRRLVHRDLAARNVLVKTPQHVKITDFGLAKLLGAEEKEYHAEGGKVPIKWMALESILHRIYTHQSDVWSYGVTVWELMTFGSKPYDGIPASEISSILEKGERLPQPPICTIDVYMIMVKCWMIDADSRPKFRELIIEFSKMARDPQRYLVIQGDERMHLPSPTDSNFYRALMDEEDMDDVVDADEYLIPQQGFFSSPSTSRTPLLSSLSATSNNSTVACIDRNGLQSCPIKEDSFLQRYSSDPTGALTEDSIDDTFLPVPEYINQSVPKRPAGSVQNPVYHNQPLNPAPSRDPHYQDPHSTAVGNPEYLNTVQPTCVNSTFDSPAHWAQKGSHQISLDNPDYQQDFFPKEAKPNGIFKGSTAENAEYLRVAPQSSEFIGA
Test: Growth inhibitory activity of compounds on BaF3 cell lines stably transfected with kinase (MTS, 48 h)
Format: cell-based
Conditions: BaF3 cells stably transfected with EGFR Δ19Del/T790M, read-out: IC50, growth inhibition, Δ19Del/T790M
pIC50: −log10 of the molar value.
Readings of pIC50 for the listed compounds

Consider the reported pIC50 for these compounds:
CN1CCN(C(=O)c2cccc(Nc3ncc(Br)c(Nc4ccc5nccnc5c4N(C)S(C)(=O)=O)n3)c2)CC1 :: 6.30 to 7.30
CCc1cc(Nc2ncc(F)c(Nc3ccc4nccnc4c3N(C)S(C)(=O)=O)n2)c(OC)cc1N1CCN(C)CC1 :: 6.30 to 7.30
CCN(c1c(Nc2nc(Nc3cc(C)c(N4CCN(C)CC4)cc3OC)ncc2Br)ccc2nccnc12)S(C)(=O)=O :: 6.30 to 7.30
COc1ccc(N2CCC(O)CC2)cc1Nc1ncc(Br)c(Nc2ccc3nccnc3c2N(C)S(C)(=O)=O)n1 :: ≥ 7.30
CCc1cc(Nc2ncc(Cl)c(Nc3ccc4nccnc4c3N(C)S(=O)(=O)C(F)(F)F)n2)c(OC)cc1N1CCN(C)CC1 :: 6.30 to 7.30

Query: Dear colleague, I am looking for the recorded pIC50 of the following compound: CN1CCN(Cc2cc(Nc3ncc(Br)c(Nc4ccc5nccnc5c4N(C)S(C)(=O)=O)n3)cc(C(F)(F)F)c2)CC1
Result: 6.30 to 7.30

Query: # pIC50 lookup, item C=Cc1cc(Nc2ncc(Br)c(Nc3ccc4nccnc4c3N(C)S(=O)(=O)C3CC3)n2)c(OC(F)(F)F)cc1N1CCC(N2CCN(C)CC2)CC1
Result: ≥ 7.30

Query: What value of measured pIC50 is listed for CCc1cc(Nc2ncc(Cl)c(Nc3ccc4nccnc4c3N(CC)S(C)(=O)=O)n2)c(OC)cc1N1CCC(N(C)C)CC1 ?
Result: ≥ 7.30

Query: Entry CN(c1c(Nc2nc(Nc3cnn(C)c3)ncc2Br)ccc2nccnc12)S(C)(=O)=O : reported pIC50 = ?
Result: ≥ 7.30

Query: // query pIC50 value for entry CCc1cc(Nc2ncc(C3CC3)c(Nc3ccc4nccnc4c3N(C)S(C)(=O)=O)n2)c(OC)cc1N1CCC(N(C)C)CC1
Result: ≥ 7.30

Query: I would be grateful if you could share the reported pIC50 for CCS(=O)(=O)N(C)c1c(Nc2nc(Nc3cc(CC4CC4)c(N4CCC(N5CCN(C)CC5)CC4)cc3OC)ncc2Cl)ccc2nccnc12 .
Result: ≥ 7.30

Query: Reported pIC50, compound CCc1cc(Nc2ncc(C)c(Nc3ccc4nccnc4c3N(C)S(C)(=O)=O)n2)c(OC)cc1N1CCC(N2CCN(C)CC2)CC1 : ____
Result: ≥ 7.30

Query: Please give the measured pIC50 for this compound: CCN(c1c(Nc2nc(Nc3cc(CC4CC4)c(N4CCC(N5CCN(C)CC5)CC4)cc3OC)ncc2Br)ccc2nccnc12)S(C)(=O)=O
Result: ≥ 7.30

Query: pIC50 for COc1cc(N2CCC(N(C)C)CC2)c(C)cc1Nc1ncc(F)c(Nc2ccc3nccnc3c2N(C)S(C)(=O)=O)n1 ?
Result: 6.30 to 7.30

* * *

Items are presented alongside their recorded pIC50.
Molecular target: various mutants of kinase EGFR (BaF3 cell lines stably transfected with kinase) (Homo sapiens, UniProt P00533, T790M, form not given)
Construct: other: BaF3 cells stably transfected with EGFR Δ19Del/T790M; MTS, 48 h; other: BaF3 cell line stably transfected with EGFR Δ19Del/T790M; MTS, 48
Assay: Growth inhibitory activity of compounds on BaF3 cell lines stably transfected with kinase (MTS, 48 h)
Format: cell-based
Conditions: BaF3 cell line stably transfected with EGFR Δ19Del/T790M, read-out: Δ19Del/ T790M growth inhibitory activity IC50
pIC50: −log10 of the molar value.

# example entries with known answers
CN1CCN(C2CCN(c3ccc(Nc4nc(Nc5ccc6nccnc6c5N(C)S(C)(=O)=O)c5[nH]ccc5n4)c(OC(F)(F)F)c3)CC2)CC1 [II-1-29] :: 5.60 to 6.30
CCc1cc(Nc2nc(Nc3ccc4nccnc4c3N(C)S(C)(=O)=O)c3cc[nH]c3n2)c(OC)nc1N1CCC(N2CCN(C)CC2)CC1 [II-2-7] :: ≥ 7.30
CCc1cc(Nc2ncc(C(C)C)c(Nc3ccc4nccnc4c3N(C)S(C)(=O)=O)n2)c(OC)nc1N1CCC(N2CCN(C)CC2)CC1 [Compound I-328] :: ≥ 7.30
CCc1cnc(Nc2cc(N3CCC(O)CC3)ccc2OC)nc1Nc1ccc2nccnc2c1N(C)S(C)(=O)=O [Compound I-363] :: 6.30 to 7.30
COc1cc(N2CCC(N3CCN(C)CC3)CC2)ccc1Nc1nc(Nc2ccc3nccnc3c2N(C)S(C)(=O)=O)c2occc2n1 [II-1-24] :: 5.60 to 6.30

Query: Look up pIC50: CC(C)n1cc(Nc2ncc(Br)c(Nc3ccc4nccnc4c3N(C)S(C)(=O)=O)n2)cn1 [Compound I-388]
Result: 6.30 to 7.30

Query: What pIC50 value was documented for this compound, COc1cc(N2CCC(N3CCN(C)CC3)CC2)ccc1Nc1ncc(Br)c(Nc2ccc3nccnc3c2NS(=O)(=O)C(C)C)n1 [Compound I-413] ?
Result: 6.30 to 7.30

Query: pIC50 lookup needed for COc1cc(N2CCC(N3CCN(C)CC3)CC2)c(C(C)C)cc1Nc1ncc(Br)c(Nc2ccc3nccnc3c2NS(C)(=O)=O)n1 [Compound I-406] , thanks.
Result: 6.30 to 7.30

* * *

Biological target: various mutants of kinase EGFR (BaF3 cell lines stably transfected with kinase) (Homo sapiens, UniProt P00533, L858R/T790M)
Construct: expressed in transfected cells; host or cells: BaF3
Sequence (P00533 25-1210 T790M/L858R): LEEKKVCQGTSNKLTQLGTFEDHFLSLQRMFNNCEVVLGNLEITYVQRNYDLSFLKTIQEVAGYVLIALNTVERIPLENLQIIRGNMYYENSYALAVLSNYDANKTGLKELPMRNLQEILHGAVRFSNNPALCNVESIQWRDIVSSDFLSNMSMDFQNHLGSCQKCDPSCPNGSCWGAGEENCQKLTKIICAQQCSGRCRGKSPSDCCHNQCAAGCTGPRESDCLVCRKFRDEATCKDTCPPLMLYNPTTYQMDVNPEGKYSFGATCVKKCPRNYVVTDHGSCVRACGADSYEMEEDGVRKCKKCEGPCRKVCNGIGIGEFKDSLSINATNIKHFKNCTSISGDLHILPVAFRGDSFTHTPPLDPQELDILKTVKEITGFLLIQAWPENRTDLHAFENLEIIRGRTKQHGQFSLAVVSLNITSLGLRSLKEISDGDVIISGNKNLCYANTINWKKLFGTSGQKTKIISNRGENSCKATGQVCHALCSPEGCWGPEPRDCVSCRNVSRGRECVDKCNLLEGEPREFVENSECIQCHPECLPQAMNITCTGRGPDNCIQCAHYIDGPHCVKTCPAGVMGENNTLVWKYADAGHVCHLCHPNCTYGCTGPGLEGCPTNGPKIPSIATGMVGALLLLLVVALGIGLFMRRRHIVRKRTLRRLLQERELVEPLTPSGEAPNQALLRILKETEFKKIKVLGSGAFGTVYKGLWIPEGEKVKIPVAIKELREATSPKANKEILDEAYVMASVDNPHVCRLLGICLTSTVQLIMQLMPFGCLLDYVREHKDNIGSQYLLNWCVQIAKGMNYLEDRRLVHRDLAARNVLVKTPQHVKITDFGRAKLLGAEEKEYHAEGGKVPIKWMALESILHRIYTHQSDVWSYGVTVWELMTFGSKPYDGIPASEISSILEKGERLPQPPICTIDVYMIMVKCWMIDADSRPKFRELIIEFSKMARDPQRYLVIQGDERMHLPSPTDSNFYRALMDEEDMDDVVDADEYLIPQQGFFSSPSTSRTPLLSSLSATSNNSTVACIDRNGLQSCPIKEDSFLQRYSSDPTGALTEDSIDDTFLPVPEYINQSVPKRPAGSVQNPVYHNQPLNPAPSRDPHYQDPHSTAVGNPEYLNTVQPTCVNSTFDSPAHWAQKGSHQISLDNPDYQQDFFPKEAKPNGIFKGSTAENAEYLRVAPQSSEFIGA
Experiment: Growth inhibitory activity of compounds on BaF3 cell lines stably transfected with kinase (MTS, 48 h)
Format: cell-based
Conditions: BaF3 cells stably transfected with EGFR L858R/T790M, read-out: IC50, growth inhibition, L858R/T790M
Description: The activity of compounds against various mutants of kinase EGFR was evaluated by their effect of inhibiting growth of BaF3 cell lines stably transfected with kinase. The specific test method was given as follows: […] 3) Compound test: cells were incubated into a 96-well culture plate, the volume of cytosol was 90 µL, and then 10 µL of the compound at each gradient concentration was added. […] OD values at 490 nm were measured by a microplate reader (VARIOSKAN FLASH, Thermo). […]
pIC50: −log10 of the molar value.
The reader will find reported pIC50 values listed item by item below.

Some compounds with recorded pIC50:
CCc1cc(Nc2ncc(Br)c(Nc3ccc4nccnc4c3N(C)S(C)(=O)=O)n2)ccc1N1CCC(N2CCN(C)CC2)CC1 :: ≥ 7.30
CCc1cc(Nc2ncc(Br)c(Nc3ccc4nccnc4c3N(C)S(C)(=O)=O)n2)c(OC)nc1N1CCC(N2CCN(C)CC2)CC1 :: ≥ 7.30
CCc1cc(Nc2ncc(C(F)(F)F)c(Nc3ccc4nccnc4c3N(C)S(C)(=O)=O)n2)c(OC)cc1N1CCC(N2CCN(C)CC2)CC1 :: ≥ 7.30
CCc1cc(Nc2ncc(Cl)c(Nc3ccc4nccnc4c3N(C)S(=O)(=O)CC)n2)c(OC)cc1N1CCN(C)CC1 :: ≥ 7.30
CCc1cc(Nc2ncc(Cl)c(Nc3ccc4nccnc4c3N(C)S(=O)(=O)C(F)(F)F)n2)c(OC(F)(F)F)cc1N1CCC(N2CCN(C)CC2)CC1 :: 5.60 to 6.30

Query: I have this compound here, COc1cc(N2CCC(N(C)C)CC2)c(C)cc1Nc1ncc(Cl)c(Nc2ccc3nccnc3c2N(C)S(=O)(=O)C(F)(F)F)n1 , and I need its recorded pIC50.
Result: 5.60 to 6.30

Query: Form field: reported pIC50 of COc1cc(N2CCC(N(C)C)CC2)c(C)cc1Nc1ncc(Cl)c(Nc2ccc3nccnc3c2N(C2CC2)S(C)(=O)=O)n1
Result: ≥ 7.30

Query: Requested read-out: pIC50. Entry: CCc1cc(Nc2ncc(Br)c(Nc3ccc4nccnc4c3N(C)S(=O)(=O)C(F)(F)F)n2)c(OC)cc1N1CCC(N(C)C)CC1
Result: 6.30 to 7.30

Query: So what does the record say about pIC50 for CCc1cc(Nc2ncc([N+](=O)[O-])c(Nc3ccc4nccnc4c3N(C)S(C)(=O)=O)n2)c(OC)cc1N1CCC(N2CCN(C)CC2)CC1 ?
Result: ≥ 7.30

Query: Item under review: CN1CCN(c2ccc(Nc3ncc(Br)c(Nc4ccc5nccnc5c4N(C)S(C)(=O)=O)n3)cc2)CC1 . Reported pIC50?
Result: ≥ 7.30

Query: Endpoint output: pIC50 of CCc1cc(Nc2ncc(C)c(Nc3ccc4nccnc4c3N(C)S(C)(=O)=O)n2)c(OC)cc1N1CCC(N2CCN(C)CC2)CC1 . Value?
Result: ≥ 7.30

Query: What value of pIC50 has been reported for the following compound? CCc1cc(Nc2ncc(F)c(Nc3ccc4nccnc4c3N(C)S(=O)(=O)C3CC3)n2)c(OC)cc1N1CCC(N2CCN(C)CC2)CC1
Result: ≥ 7.30
